cytotoxicity at 10 µM values, listed per item
Test: Toxicity liver stage against HepG2, at 10uM
Type: cell-based
Design: test concentration 10 uM, cell line HepG2-A16-CD81EGFP
Conditions: human, HepG2-A16-CD81EGFP cells; read-out: INHIBITION
// return numeric value only (unit: %, not printed)

compound	parameterMeasured	recordedNumber
Cc1ccc(-c2nc(CN3CCn4c(nnc4C4CC4)C3)cs2)o1	cytotoxicity at 10 µM	-0.215
CC(CNC(=O)c1ccc(F)cc1Cl)N1CCCC1 (centres undefined)	cytotoxicity at 10 µM	14.4
Cc1cnn(CC2CCCN2C(=O)c2nccnc2N)c1 (centres undefined)	cytotoxicity at 10 µM	-27.6

QUERY: What value of cytotoxicity at 10 µM has been reported for the following compound? Cc1nc(-c2ccccc2)n(CC(=O)NC(C)C)n1
RESULT: -14.1

QUERY: Can you look up the measured cytotoxicity at 10 µM of Cc1ccsc1C(=O)N1CCn2cnc(COCC3CC3)c2C1 for me?
RESULT: 6.93

---

Experiment: Toxicity liver stage against HepG2, at 10uM
Type: cell-based
Design: test concentration 10 uM, cell line HepG2-A16-CD81EGFP
Conditions: human, HepG2-A16-CD81EGFP cells; read-out: INHIBITION
parameterMeasured: cytotoxicity at 10 µM (%)
# output: bare number, implied unit %

Examples with their reported cytotoxicity at 10 µM follow.
compoundString	cytotoxicity at 10 µM [%]
CS(=O)(=O)N1CC[C@H]2C[C@@H](C(=O)N3CCOCC3)O[C@@H]2C1	2.28
O=C(O)[C@]12CCCN(Cc3ccsc3)C[C@H]1CN(c1ncccn1)C2	-144

Now for another entry.
QUERY: # get_value(readout='cytotoxicity at 10 µM', item= Cc1nc(-c2cccc(C(=O)O)c2)c[nH]1 )
RESULT: -3.24

---

The reader will find reported cytotoxicity at 10 µM values listed item by item below.
Test: Toxicity liver stage against HepG2, at 10uM
Format: cell-based
Design: test concentration 10 uM, cell line HepG2-A16-CD81EGFP
Conditions: human, HepG2-A16-CD81EGFP cells; read-out: INHIBITION
Could you give me the number in %? Just the number is fine.

// worked examples, cytotoxicity at 10 µM included
compound	recordedNumber
COCCN(c1ccncc1)S(=O)(=O)c1cc(C)c(F)cc1F	-6.54
Cc1cnn(CCNCC(O)c2ccc(F)c(F)c2)c1 (stereo not drawn)	-0.796
Cc1cc(C(=O)NS(C)(=O)=O)c(C)n1-c1ccccc1	-8.81
Cc1cnn(CC2CN(CC(=O)Nc3ccnn3C(C)C)CCO2)c1 (stereo not drawn)	-8.06
Cc1nn(C)cc1CN(C)c1nccc(-c2cn(C)nc2C)n1	20.2

QUERY: Find the recorded cytotoxicity at 10 µM belonging to CCc1ccc(CN2CCN(c3ncc(Cl)cn3)CC2)nc1 and report it.
RESULT: 8.45

QUERY: Look at this compound and give its reported cytotoxicity at 10 µM. CC(C)CNC(=O)c1ccc(NC(=O)NCC2CC2)cc1Cl
RESULT: 7.71

QUERY: Entry CC1CCN(CC(O)CNc2ccc(Cl)cn2)CC1 (stereo not drawn) has what cytotoxicity at 10 µM?
RESULT: 17.2

QUERY: Returns the measured cytotoxicity at 10 µM for the input compound. Input: CS(=O)(=O)NC1CCN(C(=O)c2coc(CN3CCOCC3)c2)CC1
RESULT: 3.54

QUERY: # lookup: cytotoxicity at 10 µM of NS(=O)(=O)c1ccc(CNC(=O)c2ccc(Cl)cc2F)cc1
RESULT: -1.59

QUERY: Looking for the measured cytotoxicity at 10 µM of O=C(Cc1ccccc1Cl)N1CCN(CC(O)COCCO)CC1 (stereo not drawn) , can you help?
RESULT: 5.51

QUERY: For CCOc1ccc(CN(CCC#N)CCN2CCOCC2)cc1OC , what is its reported cytotoxicity at 10 µM?
RESULT: -9.98

QUERY: Need cytotoxicity at 10 µM of CN(C)C(=O)CO[C@H]1CN(Cc2ccc(F)cc2)[C@@H]2CCCO[C@H]12 , thanks.
RESULT: -22.3

QUERY: cytotoxicity at 10 µM for CN1CCN(c2ncccn2)CC1C(N)=O (stereo not drawn) ?
RESULT: 15.4
